System: HCV 1b-BB7 subgenomic replicon
Assay overview: microbe, parasite or virus in culture
Type: cell-based, HCV genotype 1b
Condition description: Hepatitis C virus, stable replicon, strain 1b BB7, 5% FBS + 40% human plasma; read-out: 1b BB7 5% FBS + 40% Human Plasma EC50
The reader will find reported pEC50 values listed item by item below.
Remember, pEC50 is on a log scale: it is -log10 of the molar concentration.

A selection of reference data follows.
Exercise: What pEC50 appears in the records for this molecule with HCV 1b-BB7 subgenomic replicon? `CS(=O)(=O)N(CCCC#N)c1cc2oc(-c3ccc(F)cc3)c(-c3ncc[nH]3)c2cc1C1CC1`
Key: 7.55

Exercise: What pEC50 appears in the records for this molecule with HCV 1b-BB7 subgenomic replicon? `CS(=O)(=O)N(CCCc1noc(=S)[nH]1)c1cc2oc(-c3ccc(F)cc3)c(-c3ncc[nH]3)c2cc1C1CC1`
Key: 6.34

Exercise: What pEC50 appears in the records for this molecule with HCV 1b-BB7 subgenomic replicon? C[S+]([O-])CCN(c1cc2oc(-c3ccc(F)cc3)c(C3=NOCCN3)c2cc1C1CC1)S(C)(=O)=O (centres unmarked)
Key: 6.57

Exercise: What pEC50 appears in the records for this molecule with HCV 1b-BB7 subgenomic replicon? `Cc1ccc(C)n1-c1nc(CCCN(c2cc3oc(-c4ccc(F)cc4)c(-c4ncc[nH]4)c3cc2C2CC2)S(C)(=O)=O)cs1`
Key: 6.48

Exercise: What pEC50 appears in the records for this molecule with HCV 1b-BB7 subgenomic replicon? CC(O)CCCN(c1cc2oc(-c3ccc(F)cc3)c(-c3ncc[nH]3)c2cc1C1CC1)S(C)(=O)=O (centres unmarked)
Key: 7.24

Next:
Exercise: What pEC50 appears in the records for this molecule with HCV 1b-BB7 subgenomic replicon? `CS(=O)(=O)N(CCCc1cc(O)no1)c1cc2oc(-c3ccc(F)cc3)c(-c3ncc[nH]3)c2cc1C1CC1`
Key: 6.97

Exercise: What pEC50 appears in the records for this molecule with HCV 1b-BB7 subgenomic replicon? `CC(C)(O)CCN(c1cc2oc(-c3ccc(F)cc3)c(C3=NOCCN3)c2cc1C1CC1)S(C)(=O)=O`
Key: 6.46

Reference source for all entries: patent US20160355530A1
